Assay: RP, Waters CORTECS T3, 100 × 2.1 mm, 2.7 µm, 0.3 mL/min, estimated dead time 0.73 min; A: water + 0.1% formic acid, pH 3; B: methanol + 0.1% formic acid, pH 3; gradient (min/%B) 0/5 5/5 25/100 30/100 30.1/5 35/5
Details: stereoisomer not certain
Measured Property: LC retention time (min)

CCCCCCCCC=CCCCCCCCC(=O)OCC(O)CO (racemic); 24.6
CCCCC(CC)COC(=O)c1ccccc1C(=O)OCC(CC)CCCC (stereo not given) [BIS(2-ETHYLHEXYL)PHTHALATE]; 25.4
Cc1cc2nc[nH]c2cc1C; 10.4

I: O=C(O)Cc1c[nH]c2ccc(O)cc12 [5-HYDROXYINDOLEACETATE]
II: Nc1nc2nccnc2c(=O)[nH]1
Ask: Which has the higher LC retention time, I or II ? Lab note: record the label of whichever item you select.
Reply: I

Provenance of the data: the RepoRT retention time repository (doi:10.1016/j.jchromb.2020.122105)
